A collection of compounds and their measured MDR1-MDCK efflux ratio
property.name: MDR1-MDCK efflux ratio

[[record]]
structure_string = "N#Cc1ccc(-c2csc(CCN3CCCC3=O)n2)cc1"
recorded_result = 0.985

[[record]]
structure_string = "COc1ccccc1-c1nc(C(=O)O)cs1"
recorded_result = 0.649

[[record]]
structure_string = "Cc1cc(NC(=O)Cn2nc(C3CC3)ccc2=O)ccc1Cl"
recorded_result = 0.894

[[record]]
structure_string = "Cc1nn(C)c(C)c1-c1cc(C(C)(C)C)nc(N2CCN(C)CC2)n1"
recorded_result = 1.81

[[record]]
structure_string = "CCN1CCN(c2ccc(Nc3ncnc4sccc34)cc2)CC1"
recorded_result = 1.2

[[record]]
structure_string = "Cc1cc(Oc2ncccn2)ccc1NC(=O)c1c(C)oc(C)c1C"
recorded_result = 0.8

[[record]]
structure_string = "CCOC(=O)c1ccc(OCC(=O)c2c[nH]c3ccccc23)cc1"
recorded_result = 0.456


###

- stated.conditions: pH 6.8
property.name: aqueous solubility (µg/mL)

[[record]]
structure_string = "N#Cc1cccc(CN2CCC=C(CNC(=O)c3cccs3)C2)c1"
recorded_result = 52.2

[[record]]
structure_string = "c1ccc(-n2cnc3cc(NCc4ccccn4)ccc32)cc1"
recorded_result = 18.4

[[record]]
structure_string = "COc1ccc2nc(C)nc(N3CC(CO)C3)c2c1"
recorded_result = 29.3

[[record]]
structure_string = "O=C1N=C(N2CCN(c3ccccc3)CC2)S/C1=C\\c1ccc(O)cc1O"
recorded_result = 0.85

[[record]]
structure_string = "NC(=O)CN1CCC(CCc2ccccc2)CC1"
recorded_result = 41.3

[[record]]
structure_string = "OCCn1cc(-c2ccc3c(c2)CC/C3=N\\O)c(-c2ccncc2)n1"
recorded_result = 13.7

[[record]]
structure_string = "O=C(NCC1CCC1)c1ccc(-n2ccnc2)nn1"
recorded_result = 34.1

[[record]]
structure_string = "Cc1ccc(/C(N)=N/OC(=O)c2ccc3c(c2)OCCO3)cc1"
recorded_result = 0.33

[[record]]
structure_string = "CC(=O)N(c1ccc(C)cc1)c1nc(Cn2ccnc2)cs1"
recorded_result = 43.6

[[record]]
structure_string = "Cc1cc(NC(=O)C2CCN(c3ccncc3Cl)CC2)no1"
recorded_result = 29

[[record]]
structure_string = "Cc1noc(-c2ccc(NC(=O)Cc3ccccc3)cc2)n1"
recorded_result = 7.94

[[record]]
structure_string = "Nc1ccc(Oc2ccccc2F)nc1"
recorded_result = 25.6

[[record]]
structure_string = "O=C(CCCc1cc(Cl)sc1Cl)N1CC[C@H](O)C1"
recorded_result = 50

[[record]]
structure_string = "C=CC(=O)Nc1cccc(Nc2nc(Nc3ccc(OCCOC)cc3)ncc2F)c1"
recorded_result = 3.8

[[record]]
structure_string = "Cc1cccc(OCC(=O)Nc2ccc3c(c2)C(=O)N(c2ccccc2)C3=O)c1"
recorded_result = 0.41


###

A collection of compounds and their measured intrinsic clearance, rat liver microsomes
property.name: intrinsic clearance, rat liver microsomes

[[record]]
compound = "CN(CC1(CO)CCCC1)C(=O)CCN1CCCCC1=O"
recorded_result = "113 mL/min/kg"

[[record]]
compound = "Cn1nc(CNC(=O)C2CCC2)c2ccccc21"
recorded_result = "147 mL/min/kg"

[[record]]
compound = "Clc1ccc(Cc2nc(-c3cccnc3)no2)cc1"
recorded_result = "219 mL/min/kg"

[[record]]
compound = "CCCS(=O)(=O)c1nc(NC2CC2)cc(-c2ccc3c(ccn3C3CC(C)(C)NC(C)(C)C3)c2)n1"
recorded_result = "123 mL/min/kg"

[[record]]
compound = "NC(=O)c1cnn(Cc2cccc(F)c2)c1"
recorded_result = "≤ 10.7 mL/min/kg"

[[record]]
compound = "O=C(NCc1ccc(F)cc1)c1ccccn1"
recorded_result = "21.1 mL/min/kg"

[[record]]
compound = "Nc1c(C(=O)NCC2CCCO2)sc(=S)n1-c1ccc(Cl)cc1 (stereo not given)"
recorded_result = "92.3 mL/min/kg"

[[record]]
compound = "Cc1cccc(NC(=O)CN2CCCN(c3ccc(C(F)(F)F)cn3)CC2)c1"
recorded_result = "724 mL/min/kg"

[[record]]
compound = "O=C(NC1CCCC1)C1=CCN(C(=O)C2CC2)C1"
recorded_result = "37.3 mL/min/kg"

[[record]]
compound = "Cc1ccc(-c2nc(NCc3ccco3)ncc2-c2cc(C)no2)cn1"
recorded_result = "492 mL/min/kg"

[[record]]
compound = "Cc1cnc(-n2cnnc2)c(-c2cccc(Cl)c2Cl)c1"
recorded_result = "165 mL/min/kg"

[[record]]
compound = "Cc1csc(Cc2nc(-c3ccc(O)cc3)no2)n1"
recorded_result = "288 mL/min/kg"

[[record]]
compound = "CNc1cc(Nc2cccn(-c3ccccn3)c2=O)nn2c(C(=O)N[C@@H]3C[C@@H]3F)cnc12"
recorded_result = "24.7 mL/min/kg"

[[record]]
compound = "Cc1ccc(F)c(-c2noc(N)c2C)c1"
recorded_result = "293 mL/min/kg"

[[record]]
compound = "C[C@]12CCC3=C4CCC(=O)C=C4CC[C@H]3[C@@H]1CC[C@@]2(O)CC#N"
recorded_result = "185 mL/min/kg"

[[record]]
compound = "CN1CC(=O)N(CCCC(=O)Nc2cccc(C#Cc3cccs3)c2)C1=O"
recorded_result = "738 mL/min/kg"

[[record]]
compound = "CN(C)c1ccnc(NCc2ccc(F)cc2)n1"
recorded_result = "1790 mL/min/kg"

[[record]]
compound = "Cc1ccc(C#N)c(NCc2ccccc2-n2ccnc2)n1"
recorded_result = "621 mL/min/kg"

[[record]]
compound = "CC(=O)N(CC(N)=O)c1ccc(C)cc1"
recorded_result = "42.8 mL/min/kg"

[[record]]
compound = "Cc1cc(C#N)cc(N2CCc3c(ncn3CCc3ccccc3)C2)n1"
recorded_result = "3430 mL/min/kg"

[[record]]
compound = "N#Cc1cccc(CNCc2ccccn2)c1"
recorded_result = "30.3 mL/min/kg"

[[record]]
compound = "Cc1ccc(C(=O)C(=O)NC2CCCC2)cc1"
recorded_result = "465 mL/min/kg"

[[record]]
compound = "Cc1nc(CNC(=O)c2ccc(F)c(C)c2)no1"
recorded_result = "≤ 10.7 mL/min/kg"

[[record]]
compound = "Cc1nccc(-c2cccc(NCC(=O)N(C)c3ccccc3)c2)n1"
recorded_result = "401 mL/min/kg"

[[record]]
compound = "CCc1cnc(CN2C(=O)NC3(CCC3)C2=O)o1"
recorded_result = "51.9 mL/min/kg"

[[record]]
compound = "C[C@@H](CN1CCC2(CC1)C(=O)NCN2c1cccc(F)c1)NC(=O)c1ccc(Br)cc1"
recorded_result = "312 mL/min/kg"

[[record]]
compound = "Cc1ccc2nc(C)c(-c3nc(C)nn3CCO)cc2c1"
recorded_result = "19.3 mL/min/kg"

[[record]]
compound = "Cc1c(-c2ccccc2)oc2c(C(=O)NCCCN3CCCCC3)cccc2c1=O"
recorded_result = "106 mL/min/kg"

[[record]]
compound = "c1ccc(-c2n[nH]c(C3CCN(c4cnc5ccccc5n4)CC3)n2)cc1"
recorded_result = "114 mL/min/kg"

[[record]]
compound = "Cc1ccn(CCC(=O)N2CCc3nc4sccc4c(=O)n3CC2)n1"
recorded_result = "242 mL/min/kg"

[[record]]
compound = "O=C(NCc1ccc(F)cc1)C1(Cc2ccc(-c3cccnc3)cc2)CCOCC1"
recorded_result = "1970 mL/min/kg"

[[record]]
compound = "Cc1nc2cc(NC(=O)CCc3c(C)nc4c(c(C)nn4C)c3C)ccc2o1"
recorded_result = "1110 mL/min/kg"

[[record]]
compound = "CCCNC(=O)C1(Cc2ccccn2)CCOCC1"
recorded_result = "≤ 10.7 mL/min/kg"

[[record]]
compound = "COc1cc2c(cc1OC)CN(C(=O)C1CCCN(C(C)=O)C1)CC2 (stereo not given)"
recorded_result = "19.9 mL/min/kg"

[[record]]
compound = "CCOCC(=O)NCc1cc(C2CC2)n(C2CCCC2)n1"
recorded_result = "264 mL/min/kg"


###

property.name: MDR1-MDCK efflux ratio

[[record]]
structure_string = "CN(C)C(=O)c1sc2nc(C3(C)CCN(c4ncccn4)CC3)ccc2c1N"
recorded_result = 1.25

[[record]]
structure_string = "c1ccc(CO[C@@H]2CCC[C@H]2n2cc(-c3nccs3)nn2)cc1"
recorded_result = 0.658

[[record]]
structure_string = "CCCC(=O)Nc1cnc(N2CCN(C)CC2)nc1"
recorded_result = 1.39

[[record]]
structure_string = "Cc1nccc(N(C)Cc2ccc(N)nc2)n1"
recorded_result = 4.39

[[record]]
structure_string = "CCc1cc(-c2ccc(OC)c3nc(C)ccc23)nc(N2CCOCC2)n1"
recorded_result = 1.12

[[record]]
structure_string = "CN(C)C(C)(C)CNc1ncnc2ccccc12"
recorded_result = 2.86

[[record]]
structure_string = "Cn1ncc2c(Oc3cccc(Oc4ccccn4)c3)ncnc21"
recorded_result = 0.672

[[record]]
structure_string = "C#CCNC(=O)c1ccc2c(c1)OCO2"
recorded_result = 0.809

[[record]]
structure_string = "Cc1nc(NC2(c3cccc(Cl)c3)CC2)c2c(C)noc2n1"
recorded_result = 0.871

[[record]]
structure_string = "CCONC(=O)c1cncn1-c1ccc(F)cc1"
recorded_result = 2.24

[[record]]
structure_string = "CN(Cc1c(F)cccc1Cl)C(=O)c1ccc(-n2ccnc2)nc1"
recorded_result = 0.625

[[record]]
structure_string = "CC1CCN([C@H](c2ccc(F)cc2)c2ccc([C@@H](C)C(=O)O)cc2-c2ccc(C(F)(F)F)cc2)CC1"
recorded_result = 1.99

[[record]]
structure_string = "Cc1ccc(C(=O)N(C)C)cc1NS(C)(=O)=O"
recorded_result = 8.3

[[record]]
structure_string = "O=C(NCc1ccc(F)cc1)c1ccc(-n2ccnc2)nc1"
recorded_result = 1.04

[[record]]
structure_string = "O=C(Cn1nc(Cc2ccccc2)c2ccccc2c1=O)NCCc1c[nH]cn1"
recorded_result = 34.6

[[record]]
structure_string = "N#Cc1ccc2nc([C@H]3CCN(C4CCC4)C3)[nH]c2c1"
recorded_result = 4.41

[[record]]
structure_string = "CSCC(=O)N1CCN(C(=O)CSC)C2(CCCCC2)C1"
recorded_result = 5.33

[[record]]
structure_string = "O=S(=O)(N1CCOCC1)N1CCN(Cc2ccccc2F)CC1"
recorded_result = 0.958

